The measured values listed here are drawn from patent US20180057507A1.

Biological target: human DLK (Homo sapiens, UniProt Q12852)
Sequence (Q12852 whole entry): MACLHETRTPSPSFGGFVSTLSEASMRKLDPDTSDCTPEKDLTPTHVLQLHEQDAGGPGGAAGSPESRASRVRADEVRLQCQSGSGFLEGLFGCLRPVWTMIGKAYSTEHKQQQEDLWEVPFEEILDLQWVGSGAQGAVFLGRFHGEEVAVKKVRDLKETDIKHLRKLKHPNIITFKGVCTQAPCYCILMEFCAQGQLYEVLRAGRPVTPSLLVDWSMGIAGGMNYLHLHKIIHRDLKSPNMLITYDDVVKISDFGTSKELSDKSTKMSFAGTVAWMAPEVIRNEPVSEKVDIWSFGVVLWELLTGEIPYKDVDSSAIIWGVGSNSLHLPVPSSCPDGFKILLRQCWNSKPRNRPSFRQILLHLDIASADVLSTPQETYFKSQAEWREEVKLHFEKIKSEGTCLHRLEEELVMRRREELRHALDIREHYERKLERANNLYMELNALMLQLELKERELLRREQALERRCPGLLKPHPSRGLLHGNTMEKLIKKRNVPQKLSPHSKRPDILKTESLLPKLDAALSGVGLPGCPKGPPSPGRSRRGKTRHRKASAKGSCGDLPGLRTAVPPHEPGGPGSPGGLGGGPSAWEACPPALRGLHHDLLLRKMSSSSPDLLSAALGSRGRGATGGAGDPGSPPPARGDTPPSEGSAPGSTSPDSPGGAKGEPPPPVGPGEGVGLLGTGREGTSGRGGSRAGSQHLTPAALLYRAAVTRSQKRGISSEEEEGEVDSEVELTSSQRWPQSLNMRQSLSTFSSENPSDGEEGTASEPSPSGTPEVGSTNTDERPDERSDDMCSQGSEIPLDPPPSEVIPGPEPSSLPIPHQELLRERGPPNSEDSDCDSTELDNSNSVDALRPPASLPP
Assay: DLK Kd Determinations (KINOMEscan KdELECT, DiscoveRx)
Conditions: fusion protein of full length human DLK (amino acids 1-859) and NFkB DNA binding domain; qPCR readout; duplicate
measured-parameter: Kd (µM)

Nc1ncc(-c2cn3c(n2)C(C2CC2)OCC3)cc1C(F)(F)F (centres unmarked)	1.2
CN1CCN(C2C[C@@H]3[C@H](C2)[C@H]3n2cc(-c3cnc(N)c(OC(F)F)c3)nc2C2CC2)CC1 (some centres unmarked)	0.054
CC(C)c1nc(-c2cnc(N)c(C(F)(F)F)c2)cn1CCC1CCOCC1	0.16
COCCN1C[C@@H]2[C@H](C1)[C@H]2n1cc(-c2cnc(N)c(C(F)(F)F)c2)nc1C(C)C	0.21
Nc1ncc(-c2cn([C@H]3[C@@H]4CC(N5CCOCC5)C[C@@H]43)c(C3CC3)n2)cc1C(F)(F)F (single isomer, unassigned) [Example 128b]	0.022
CC(C)c1nc(-c2cnc(N)c(OC(F)F)c2)cn1[C@H]1[C@@H]2CN(C3COC3)C[C@@H]21	0.16
Nc1ncc(-c2cn([C@H]3[C@@H]4CN(CCF)C[C@@H]43)c(C3CC3)n2)cc1OC(F)F	0.055
CC(C)c1nc(-c2cnc(N)c(OC(F)(F)F)c2)cn1[C@H]1[C@@H]2CN(CCF)C[C@@H]21	0.1

A: CC(C)c1nc(-c2cnc(N)c(OC(F)F)c2)cn1[C@H]1[C@@H]2CC(N3CCN(C)CC3)C[C@@H]21 (single isomer, unassigned) [Example 145b]
B: CC(C)c1nc(-c2cnc(N)c(OC(F)(F)F)c2)cn1[C@H]1[C@@H]2CC(N3CCOCC3)C[C@@H]21 (single isomer, unassigned) [Example 19a]
C: Nc1ncc(-c2cn([C@H]3[C@@H]4CC(N5CCOCC5)C[C@@H]43)c(CC3CC3)n2)cc1C(F)(F)F (single isomer, unassigned) [Example 138b]
D: Nc1ncc(-c2cn([C@H]3[C@@H]4CN(CCF)C[C@@H]43)c(CC3CC3)n2)cc1C(F)(F)F
Q. Sort low-to-high on Kd, please. Give the labels in the order requested.
A. D, C, A, B
(D: 0.017 µM, C: 0.034 µM, A: 0.05 µM, B: 0.076 µM)
